- System: eIF2α in HEK293-EGFP-eIF2α cells
- Assay explanation: PERK Cellular Assay (HEK293-EGFP-eIF2α cells, tunicamycin-induced ER stress, TR-FRET)
- Format: cell-based
- Test context: tunicamycin 2 hours
pIC50: −log10 of the molar value.
Measurement label: pIC50

Known pIC50 results, listed for orientation:
[
  {
    "Compound": "[2H]C([2H])([2H])c1nc(-c2ccc(NC(=O)C(O)c3cc(F)cc(F)c3)cc2F)c2c(N)ncc(Cl)n12 (stereo not shown) [Example 109]",
    "Study system": "eIF2α in HEK293-EGFP-eIF2α cells",
    "pIC50": "7.60 to 9.00"
  },
  {
    "Compound": "[2H]C([2H])([2H])c1nc(-c2ccc(NC(=O)C(O)c3cccc(F)c3)c(F)c2)c2c(N)ncc(C)n12 (stereo not shown) [Example 123]",
    "Study system": "eIF2α in HEK293-EGFP-eIF2α cells",
    "pIC50": "7.60 to 9.00"
  },
  {
    "Compound": "Cc1cn2c(C3CC(C)(O)C3)nc(-c3ccc(NC(=O)C(O)c4cccc(F)c4)cc3C)c2c(N)n1 (stereo not shown) [Example 24]",
    "Study system": "eIF2α in HEK293-EGFP-eIF2α cells",
    "pIC50": "6.60 to 7.00"
  }
]

// next item, pIC50 requested
Q. Given the entry [2H]C([2H])([2H])c1nc(-c2ccc(NC(=O)C(O)c3cc(F)cc(C(F)(F)F)c3)cc2F)c2c(N)ncc(C(F)(F)F)n12 (stereo not shown) [Example 113] , report its measured pIC50.
A. 6.60 to 7.00

---

- Test system: eIF2α in HEK293-EGFP-eIF2α cells
- Assay explanation: PERK Cellular Assay (HEK293-EGFP-eIF2α cells, tunicamycin-induced ER stress, TR-FRET)
- Type: cell-based
- Test context: tunicamycin 2 hours
pIC50: −log10 of the molar value.
A collection of compounds and their measured pIC50

Solved cases (2 shown):
[
  {
    "Compound": "[2H]C([2H])([2H])c1nc(-c2ccc(NC(=O)C(O)c3cccc(C(F)(F)F)c3)c(F)c2F)c2c(N)ncc(C)n12 (stereo not drawn) [Example 146]",
    "pIC50": "7.60 to 9.00"
  },
  {
    "Compound": "Cc1cn2c(C)nc(-c3ccc(NC(=O)C(O)c4cccc(F)c4)cc3C)c2c(N)n1 (single isomer, unassigned) [Example 4]",
    "pIC50": "6.30 to 6.60"
  }
]

Let us move to another entry and its pIC50.
Q. Any idea what its pIC50 is? The compound is [2H]C([2H])([2H])c1nc(-c2ccc(NC(=O)C(O)c3cc(F)cc(C(F)(F)F)c3)cc2F)c2c(N)ncc(C)n12 (stereo not drawn) [Example 110]
A. 7.60 to 9.00

---

- Study system: Recombinant human EIF2AK3 (PERK) catalytic domain (amino acids 536-1116) (Homo sapiens (Human))
- Assay explanation: PERK In Vitro Activity Assay (isolated), TR-FRET kinase assay
- Test context: isolated PERK enzyme, 1.5 μM ATP, read-out: Biochemical IC50
pIC50: −log10 of the molar value.
Measured pIC50 of individual entries

Example entries and their recorded answers appear below.
[
  {
    "Molecule": "[2H]C([2H])([2H])c1nc(-c2ccc(NC(=O)C(O)c3cc(F)cc(C(F)(F)F)c3)cc2C)c2c(N)ncc(Cl)n12 (stereo not drawn) [Example 56]",
    "Measurement label": "pIC50",
    "Measured value": "7.60 to 9.00"
  },
  {
    "Molecule": "[2H]C([2H])([2H])c1nc(-c2ccc(NC(=O)C(O)c3cc(F)cc(C(F)(F)F)c3)cc2C)c2c(N)ncc(C(F)(F)F)n12 (stereo not drawn) [Example 60]",
    "Measurement label": "pIC50",
    "Measured value": "7.60 to 9.00"
  },
  {
    "Molecule": "[2H]C([2H])([2H])c1nc(-c2ccc(NC(=O)C(O)c3cccc(Cl)c3)c(F)c2F)c2c(N)ncc(Cl)n12 (stereo not drawn) [Example 145]",
    "Measurement label": "pIC50",
    "Measured value": "7.60 to 9.00"
  }
]

Q. // returns reported pIC50 for input [2H]C([2H])([2H])c1nc(-c2ccc(NC(=O)C(O)c3cccc(F)c3)cc2F)c2c(N)ncc(Cl)n12 (stereo not drawn) [Example 75]
A. 7.60 to 9.00

Q. Could you do the same for [2H]C([2H])([2H])c1nc(-c2ccc(NC(=O)C(O)c3cccc(Cl)c3)cc2F)c2c(N)ncc(C(F)(F)F)n12 (stereo not drawn) [Example 82] , please?
A. 7.60 to 9.00

Q. How about [2H]C([2H])([2H])c1nc(-c2ccc(NC(=O)C(O)c3cc(F)cc(C(F)(F)F)c3)cc2F)c2c(N)nc(C)cn12 (stereo not drawn) [Example 117] ?
A. 7.00 to 7.29

---

Quick list: pIC50 per entry.
- Study system: Recombinant human EIF2AK3 (PERK) catalytic domain (amino acids 536-1116) (Homo sapiens (Human), UniProt Q9NZJ5)
- Sequence (Q9NZJ5 536-1116): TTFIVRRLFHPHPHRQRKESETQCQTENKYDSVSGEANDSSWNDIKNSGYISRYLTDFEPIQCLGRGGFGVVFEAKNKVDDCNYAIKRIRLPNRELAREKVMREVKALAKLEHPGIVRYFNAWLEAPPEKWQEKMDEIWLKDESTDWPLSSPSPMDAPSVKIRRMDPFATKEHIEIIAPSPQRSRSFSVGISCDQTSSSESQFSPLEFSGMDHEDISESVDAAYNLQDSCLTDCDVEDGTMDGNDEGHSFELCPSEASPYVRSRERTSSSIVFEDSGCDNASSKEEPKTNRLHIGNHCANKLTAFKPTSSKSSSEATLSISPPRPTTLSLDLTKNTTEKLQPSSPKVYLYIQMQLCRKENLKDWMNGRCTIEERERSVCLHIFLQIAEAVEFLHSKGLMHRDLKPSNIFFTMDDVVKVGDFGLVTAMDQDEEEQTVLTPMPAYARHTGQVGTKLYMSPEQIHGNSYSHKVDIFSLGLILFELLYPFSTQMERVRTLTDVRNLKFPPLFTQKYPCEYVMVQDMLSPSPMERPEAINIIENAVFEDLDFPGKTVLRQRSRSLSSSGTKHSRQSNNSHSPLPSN
- Assay explanation: PERK In Vitro Activity Assay (isolated), TR-FRET kinase assay
- Test context: isolated PERK enzyme, 1.5 μM ATP, read-out: Biochemical IC50
pIC50: −log10 of the molar value.

Consider the following illustrative entries.
[
  {
    "Compound": "[2H]C([2H])([2H])c1nc(-c2ccc(NC(=O)C(O)c3cc(F)cc(F)c3)cc2F)c2c(N)ncc(C)n12 (stereo not drawn) [Example 105]",
    "pIC50": "7.60 to 9.00"
  },
  {
    "Compound": "Cc1cnc(N)c2c(-c3ccc(NC(=O)C(O)c4cccc(F)c4)cc3F)nc(C)n12 (stereo not drawn) [Example 70]",
    "pIC50": "7.60 to 9.00"
  }
]

Q. Dear colleague, I am looking for the recorded pIC50 of the following compound: Cc1cc(NC(=O)C(O)c2cccc(F)c2)ccc1-c1nc(C)n2ccnc(N)c12 (stereo not drawn) [Example 2]
A. 7.30 to 7.59

Q. # iterate: [2H]C([2H])([2H])c1nc(-c2ccc(NC(=O)C(O)c3cc(F)cc(F)c3)cc2F)c2c(N)nc(C)cn12 (stereo not drawn) [Example 103]
A. 7.60 to 9.00

Q. Would you kindly repeat that for [2H]C([2H])([2H])c1nc(-c2ccc(NC(=O)C(O)c3cccc(F)c3)nc2C)c2c(N)nc(C)cn12 (stereo not drawn) [Example 171] ?
A. 5.70 to 6.00

Q. Entry to check: [2H]C([2H])([2H])c1nc(-c2ccc(NC(=O)C(O)c3cccc(C(F)(F)F)c3)c(F)c2F)c2c(N)nc(C)cn12 (stereo not drawn) [Example 150]
A. 7.60 to 9.00

Q. Now consider [2H]C([2H])([2H])c1nc(-c2cnc(NC(=O)C(O)c3cccc(F)c3)cc2C)c2c(N)ncc(C)n12 (stereo not drawn) [Example 181] .
A. 7.60 to 9.00

Q. Can you check [2H]C([2H])([2H])c1nc(-c2ccc(NC(=O)C(O)c3cccc(F)c3)cc2C)c2c(N)ncc(Cl)n12 (stereo not drawn) [Example 33] next?
A. 7.60 to 9.00

Q. Now the compound [2H]C([2H])([2H])c1nc(-c2ccc(NC(=O)C(O)c3cccc(F)c3)c(F)c2F)c2c(N)ncc(Cl)n12 (stereo not drawn) [Example 137]
A. 7.60 to 9.00

Q. And for [2H]C([2H])([2H])c1nc(-c2ccc(NC(=O)C(O)c3cc(F)cc(C(F)(F)F)c3)c(F)c2F)c2c(N)nc(C)cn12 (stereo not drawn) [Example 166] ?
A. 7.60 to 9.00

Q. Next entry: Cc1cc(NC(=O)C(O)c2cccc(F)c2)ccc1-c1nc(C)n2c(Cl)cnc(N)c12 (stereo not drawn) [Example 28]
A. 7.60 to 9.00

Q. Item: [2H]C([2H])([2H])c1nc(-c2ccc(NC(=O)C(O)c3cccc(Cl)c3)cc2C)c2c(N)ncc(Cl)n12 (stereo not drawn) [Example 42]
A. 7.60 to 9.00

Q. Here is the next compound: [2H]C([2H])([2H])c1nc(-c2ccc(NC(=O)C(O)c3cc(F)cc(C(F)(F)F)c3)c(F)c2F)c2c(N)ncc(C)n12 (stereo not drawn) [Example 160]
A. 7.60 to 9.00

Q. Next compound: [2H]C([2H])([2H])c1nc(-c2ccc(NC(=O)C(O)c3cc(F)cc(F)c3)c(F)c2F)c2c(N)ncc(Cl)n12 (stereo not drawn) [Example 157]
A. 7.60 to 9.00

Q. Also, [2H]C([2H])([2H])c1nc(-c2ccc(NC(=O)C(O)c3cc(F)cc(F)c3)c(F)c2F)c2c(N)ncc(C(F)(F)F)n12 (stereo not drawn) [Example 159] please.
A. 7.00 to 7.29

Q. Proceed to [2H]C([2H])([2H])c1nc(-c2ccc(NC(=O)C(O)c3cc(F)cc(C(F)(F)F)c3)c(F)c2F)c2c(N)ncc(C(F)(F)F)n12 (stereo not drawn) [Example 163]
A. 6.30 to 6.60

Q. Queued: [2H]C([2H])([2H])c1nc(-c2ccc(NC(=O)C(O)c3cccc(Cl)c3)c(F)c2F)c2c(N)ncc(Cl)n12 (stereo not drawn) [Example 144]
A. 7.60 to 9.00

Q. Cool, now [2H]C([2H])([2H])c1nc(-c2cnc(NC(=O)C(O)c3cccc(F)c3)cc2C)c2c(N)ncc(C)n12 (stereo not drawn) [Example 180]
A. 7.30 to 7.59

Q. Next entry: [2H]C([2H])([2H])c1nc(-c2ccc(NC(=O)C(O)c3cc(F)cc(C(F)(F)F)c3)c(F)c2F)c2c(N)nc(C)cn12 (stereo not drawn) [Example 167]
A. 7.30 to 7.59

Q. Also Cc1cc(NC(=O)C(O)c2cccc(F)c2)ccc1-c1nc(C)n2c(C(F)(F)F)cnc(N)c12 (stereo not drawn) [Example 26] , if possible.
A. 7.60 to 9.00

Q. Same thing, different compound: CCc1cc(NC(=O)C(O)c2cccc(F)c2)ccc1-c1nc(C)n2c(C)cnc(N)c12 (stereo not drawn) [Example 66]
A. 7.60 to 9.00

Q. Please give the result for [2H]C([2H])([2H])c1nc(-c2ccc(NC(=O)C(O)c3cccc(F)c3)c(F)c2F)c2c(N)ncc(Cl)n12 (stereo not drawn) [Example 136] too.
A. 7.60 to 9.00

# credit: patent US12331054B2
